FYI, the data here is from patent US20130116231A1.

experimental-system: human c-Met (Homo sapiens, UniProt P08581)
Construct: Recombinant GST-tagged cytosolic domains of human c-Met; 6xHis
Sequence (P08581 956-1390 limits assumed): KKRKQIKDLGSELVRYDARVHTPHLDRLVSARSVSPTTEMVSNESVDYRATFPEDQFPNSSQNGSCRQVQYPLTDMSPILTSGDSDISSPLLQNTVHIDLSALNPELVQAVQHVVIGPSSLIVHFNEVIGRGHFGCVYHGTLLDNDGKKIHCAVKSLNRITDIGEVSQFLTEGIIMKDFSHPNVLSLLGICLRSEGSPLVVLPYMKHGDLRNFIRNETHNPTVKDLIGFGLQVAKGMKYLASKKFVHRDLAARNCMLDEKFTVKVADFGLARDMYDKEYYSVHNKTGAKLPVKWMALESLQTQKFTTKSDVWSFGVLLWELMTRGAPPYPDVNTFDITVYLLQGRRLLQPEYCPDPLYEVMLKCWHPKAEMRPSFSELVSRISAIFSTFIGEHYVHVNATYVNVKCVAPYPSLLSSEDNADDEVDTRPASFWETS
run-description: in vitro kinase assay (homogeneous time-resolved tyrosine kinase assay, METKA)
measurement-conditions: recombinant GST-tagged c-Met cytosolic domain, HTRF, 50 μM MgATP; read-out: Biological Activity (METKA IC50) Activity Code
IC50 by entry:

Solved cases below.
INSERT INTO results (compound, experimental_system, observed_value) VALUES
  ('Cn1cc(-n2ccc(=O)c(COc3ccc4ncc(-c5cnn(C6CNC6)c5)cc4c3)n2)cn1', 'human c-Met (Homo sapiens, UniProt P08581)', '< 100 nM'),
  ('CCn1cc(-n2ccc(=O)c(OC(C)c3ccc4nccc(OC)c4c3)n2)cn1 (centres unmarked) [Example 132]', 'human c-Met (Homo sapiens, UniProt P08581)', '< 100 nM'),
  ('Cn1cc(-n2ccc(=O)c(COc3ccc4ncc(OCC(C)(C)O)cc4c3)n2)cn1', 'human c-Met (Homo sapiens, UniProt P08581)', '< 100 nM'),
  ('Cn1cc(-n2ccc(=O)c(COc3ccc4[nH]c(-c5ccccc5)nc4c3)n2)cn1', 'human c-Met (Homo sapiens, UniProt P08581)', '< 100 nM');

Requested field: IC50. Item: CCOc1cnc2ccc(OCc3nn(-c4cc(F)cc(C#N)c4)ccc3=O)cc2c1 < 100 nM

Requested field: IC50. Item: CCn1cc(-n2ccc(=O)c(COc3ccc4ncc(-c5ccc(S(C)(=O)=O)cc5)cc4c3)n2)cn1 < 100 nM

====

experimental-system: human c-Met (Homo sapiens, UniProt P08581)
Construct: Recombinant GST-tagged cytosolic domains of human c-Met; 6xHis
run-description: in vitro kinase assay (homogeneous time-resolved tyrosine kinase assay, METKA)
measurement-conditions: recombinant GST-tagged c-Met cytosolic domain, HTRF, 50 μM MgATP; read-out: Biological Activity (METKA IC50) Activity Code
pIC50: −log10 of the molar value.
attribute-measured: pIC50

Solved cases below.
INSERT INTO results (molecule, experimental_system, observed_value) VALUES
  ('COc1cnc2ccc(C(C)Oc3nn(-c4cnn(C)c4)ccc3=O)cc2c1 (single isomer, unassigned)', 'human c-Met (Homo sapiens, UniProt P08581)', '> 7.00'),
  ('COc1ccnc2ccc(CCc3nn(-c4cnn(C)c4)ccc3=O)cc12', 'human c-Met (Homo sapiens, UniProt P08581)', '> 7.00'),
  ('Cn1cc(-n2ccc(=O)c(COc3ccc4ncncc4c3)n2)cn1', 'human c-Met (Homo sapiens, UniProt P08581)', '6.00 to 7.00'),
  ('Cn1cc(-n2ccc(=O)c(COc3ccc4ncc(-c5cccnc5)cc4c3)n2)cn1', 'human c-Met (Homo sapiens, UniProt P08581)', '> 7.00'),
  ('N#Cc1ccc(-n2ccc(=O)c(COc3ccc4ncccc4c3)n2)cc1', 'human c-Met (Homo sapiens, UniProt P08581)', '> 7.00'),
  ('CCn1cc(-n2ccc(=O)c(COc3ccc4ncc(-c5ccncc5)cc4c3)n2)cn1', 'human c-Met (Homo sapiens, UniProt P08581)', '> 7.00'),
  ('COCCOc1cnc2ccc(OCc3nn(-c4cccc(Br)c4)ccc3=O)cc2c1', 'human c-Met (Homo sapiens, UniProt P08581)', '> 7.00'),
  ('CCOC(=O)Nc1ccc(CCc2nn(-c3cnn(C)c3)ccc2=O)cc1', 'human c-Met (Homo sapiens, UniProt P08581)', '5.52 to 6.00');

Requested field: pIC50. Item: Cn1cc(-n2ccc(=O)c(COc3ccc4ncc(OCC5CCOC5)cc4c3)n2)cn1 (centres unmarked) > 7.00

Requested field: pIC50. Item: COC(=O)c1ccc(CCc2nn(-c3cnn(C)c3)ccc2=O)cc1 5.52 to 6.00

Requested field: pIC50. Item: Cn1cc(C(=O)Nc2cccc(OCc3nn(-c4cnn(C)c4)ccc3=O)c2)cn1 5.52 to 6.00

Requested field: pIC50. Item: CCn1cc(-n2ccc(=O)c(COc3ccc4ncc(OCCOC)cc4c3)n2)cn1 > 7.00

Requested field: pIC50. Item: CCn1cc(-n2ccc(=O)c(COc3ccc4ncc(-c5ccccc5F)cc4c3)n2)cn1 > 7.00

Requested field: pIC50. Item: COCCOc1cnc2ccc(C(C)Oc3nn(-c4cnn(C)c4)ccc3=O)cc2c1 (single isomer, unassigned) [Example 143] > 7.00

====

experimental-system: human c-Met (Homo sapiens)
Construct: Recombinant GST-tagged cytosolic domains of human c-Met; 6xHis; made in house; host or cells: Sf9 or Sf21 insect cells (baculovirus)
run-description: in vitro kinase assay (homogeneous time-resolved tyrosine kinase assay, METKA)
Type: biochemical
measurement-conditions: recombinant GST-tagged c-Met cytosolic domain, HTRF, 50 μM MgATP; read-out: Biological Activity (METKA IC50) Activity Code
attribute-measured: IC50

Solved cases below.
INSERT INTO measurements (compound, experimental_system, observed_value) VALUES
  ('COCc1cnc2ccc(OCc3nn(-c4cnn(C)c4)ccc3=O)cc2c1', 'human c-Met (Homo sapiens)', '< 100 nM'),
  ('O=c1ccn(-c2cccc(Br)c2)nc1COc1ccc2ncccc2c1', 'human c-Met (Homo sapiens)', '< 100 nM'),
  ('CCc1ccnc2ccc(OCc3nn(-c4cnn(C)c4)ccc3=O)cc12', 'human c-Met (Homo sapiens)', '< 100 nM');

Proceeding to the next compound to report its IC50.
IC50 of CCOc1cnc2ccc(C(C)Oc3nn(-c4cnn(C)c4)ccc3=O)cc2c1 (single isomer, unassigned) [Example 142] on human c-Met (Homo sapiens)? 1000 to 3000 nM

====

IC50 by entry:
experimental-system: human c-Met (Homo sapiens, UniProt P08581)
Construct: Recombinant GST-tagged cytosolic domains of human c-Met; 6xHis
run-description: in vitro kinase assay (homogeneous time-resolved tyrosine kinase assay, METKA)
measurement-conditions: recombinant GST-tagged c-Met cytosolic domain, HTRF, 50 μM MgATP; read-out: Biological Activity (METKA IC50) Activity Code
Protocol: Recombinant GST-tagged cytosolic domains of human c-Met and other receptor tyrosine kinases including mouse c-Met, human Ron, KDR, IGFR, EGFR, FGFR, Mer, TrkA and Tie2 are used to determine whether the compounds of the instant invention modulate the enzymatic activities of these kinases. […] The kinase activities of c-Met and other kinases are measured using a modified version of the homogeneous time-resolved tyrosine kinase assay described by Park et al. (1999, Anal. Biochem. 269:94-104). […]

Requested field: IC50. Item: Cn1cc(-n2ccc(=O)c(CCc3ccc(N)cc3)n2)cn1 1000 to 3000 nM

Requested field: IC50. Item: [2H]C([2H])([2H])C([2H])([2H])Oc1cnc2ccc(OCc3nn(-c4cnn(C)c4)ccc3=O)cc2c1 < 100 nM

Requested field: IC50. Item: Cn1cc(-n2ccc(=O)c(CCc3ccnc4ccccc34)n2)cn1 1000 to 3000 nM

Requested field: IC50. Item: CCOc1cnc2ccc(OCc3nn(-c4cc(F)cc(F)c4)ccc3=O)cc2c1 < 100 nM

====

IC50 by entry:
experimental-system: human c-Met (Homo sapiens)
Construct: Recombinant GST-tagged cytosolic domains of human c-Met; 6xHis
run-description: in vitro kinase assay (homogeneous time-resolved tyrosine kinase assay, METKA)
measurement-conditions: recombinant GST-tagged c-Met cytosolic domain, HTRF, 50 μM MgATP; read-out: Biological Activity (METKA IC50) Activity Code

Requested field: IC50. Item: CCc1cnc2ccc(OCc3nn(-c4cnn(C)c4)ccc3=O)cc2c1 < 100 nM

====

experimental-system: human c-Met (Homo sapiens)
Construct: Recombinant GST-tagged cytosolic domains of human c-Met; 6xHis
run-description: in vitro kinase assay (homogeneous time-resolved tyrosine kinase assay, METKA)
measurement-conditions: recombinant GST-tagged c-Met cytosolic domain, HTRF, 50 μM MgATP; read-out: Biological Activity (METKA IC50) Activity Code
attribute-measured: IC50

INSERT INTO assay_data (molecule, observed_value) VALUES
  ('COc1cnc2ccc(OCc3nn(-c4cnn(C)c4)ccc3=O)cc2c1 [Example 35]', '< 100 nM'),
  ('COCCOc1cnc2ccc(OCc3nn(-c4cccc(C(=O)N(C)C)c4)ccc3=O)cc2c1 [Example 52]', '1000 to 3000 nM');

Requested field: IC50. Item: Cn1cc(-n2ccc(=O)c(COc3ccc4ncc(C(=O)N5CCOCC5)cc4c3)n2)cn1 [Example 109] 1000 to 3000 nM

Requested field: IC50. Item: Cn1cc(-n2ccc(=O)c(COc3ccc4ncsc4c3)n2)cn1 [Example 105] < 100 nM

Requested field: IC50. Item: CC(Cc1nn(-c2cnn(C)c2)ccc1=O)c1ccc2ncccc2c1 (single isomer, unassigned) [Example 125] < 100 nM
